These entries and their values trace back to patent US20190343828A1.

System: Burkitt's lymphoma cells (Ramos)
Assay: In vitro cytotoxicity, CellTiter-Glo 96 h, Ramos
Settings: Homo sapiens, read-out: Cytotoxic potency as free drug, IC50, Ramos
measureName: IC50

compound | assayTarget | IC50
CC[C@@]1(O)C(=O)OCc2c1cc1n(c2=O)Cc2c-1nc1cc3c(cc1c2CNC1CCCCC1)OCO3 | Burkitt's lymphoma cells (Ramos) | 1 to 10 nM

Bench note, Burkitt's lymphoma cells (Ramos): entry CC[C@@]1(O)C(=O)OCc2c1cc1n(c2=O)Cc2c-1nc1cc3c(cc1c2CNCCOCCOCCN)OCO3 , its IC50 = 0.1 to 1 nM

Bench note, Burkitt's lymphoma cells (Ramos): entry CC[C@@]1(O)C(=O)OCc2c1cc1n(c2=O)Cc2c-1nc1cc3c(cc1c2-c1ccc(F)cc1)OCO3 , its IC50 = 0.1 to 1 nM

Bench note, Burkitt's lymphoma cells (Ramos): entry CC[C@@]1(O)C(=O)OCc2c1cc1n(c2=O)Cc2c-1nc1cc3c(cc1c2CO)OCO3 , its IC50 = 0.1 to 1 nM

Bench note, Burkitt's lymphoma cells (Ramos): entry CC[C@@]1(O)C(=O)OCc2c1cc1n(c2=O)Cc2c-1nc1cc3c(cc1c2CN(C)C1CCCC[C@H]1NC)OCO3 (stereo partly drawn) , its IC50 = 1 to 10 nM

Bench note, Burkitt's lymphoma cells (Ramos): entry CCCCCc1c2c(nc3cc4c(cc13)OCO4)-c1cc3c(c(=O)n1C2)COC(=O)[C@]3(O)CC , its IC50 = 0.1 to 1 nM

====

System: Burkitt's lymphoma cells (Ramos)
Experiment: In vitro cytotoxicity, CellTiter-Glo 96 h, Ramos
Conditions: Homo sapiens, read-out: Cytotoxic potency as free drug, IC50, Ramos
pIC50: −log10 of the molar value.
measureName: pIC50

molSmiles | pIC50
CCCCCCc1c2c(nc3cc4c(cc13)OCO4)-c1cc3c(c(=O)n1C2)COC(=O)[C@]3(O)CC | 9.00 to 10.00
CC[C@@]1(O)C(=O)OCc2c1cc1n(c2=O)Cc2c-1nc1cc3c(cc1c2CNCCNC(C)C)OCO3 | 8.00 to 9.00
CC[C@@]1(O)C(=O)OCc2c1cc1n(c2=O)Cc2c-1nc1cc3c(cc1c2CN)OCO3 | 8.00 to 9.00
CC[C@@]1(O)C(=O)OCc2c1cc1n(c2=O)Cc2c-1nc1cc3c(cc1c2C1CCCC1)OCO3 | 9.00 to 10.00
CC[C@@]1(O)C(=O)OCc2c1cc1n(c2=O)Cc2c-1nc1cc3c(cc1c2CNCCC(c1ccccc1)c1ccccc1)OCO3 | 8.00 to 9.00

pIC50 in this record for CC[C@@]1(O)C(=O)OCc2c1cc1n(c2=O)Cc2c-1nc1cc3c(cc1c2CN(C)CCN(C)C)OCO3 : 8.00 to 9.00
